# Tested on: human LIM domain kinase 1 mRNA
# experimental_details: Antisense inhibition of human LIM domain kinase 1 mRNA levels, quantitative real-time PCR, A549 cells (screen)
# Assay type: cell-based
# condition_info: quantitative real-time PCR, averages from two experiments, screening concentration not given (50 nM to 300 nM used herein)
Strand notation (5' to 3'): a small letter for the sugar, then the base; units joined by * are phosphorothioate-linked, units joined directly phosphodiester-linked; [ ] holds rarer units or linkages, { } end groups; capitals alone tell only the bases. e = 2'-O-(2-methoxyethyl) (MOE); [5mC] = 5-methylcytosine; d = 2'-deoxy (DNA)
Collected % INHIB (inhibition of human LIM domain kinase 1 mRNA levels) values appear next to each entry.
Please reply with the bare figure in % and do not write the unit itself.

Answered cases to consult:
206205 (antisense eA*eA*eA*eG*eG*dA*dT*dG*dG*d[5mC]*d[5mC]*dT*d[5mC]*dT*dT*e[5mC]*eT*e[5mC]*eG*eG) [compound 206205] :: 74
206193 (antisense eA*eG*eG*eT*e[5mC]*d[5mC]*dT*dT*dG*d[5mC]*dG*d[5mC]*dT*dG*dG*eG*eA*eG*eG*e[5mC]) [compound 206193] :: 67
206217 (antisense eA*eA*eG*e[5mC]*eT*dT*d[5mC]*dA*d[5mC]*dA*dG*dT*dT*dT*dT*eA*eA*eT*eA*e[5mC]) [compound 206217] :: 68

Task: Looking for the measured % INHIB (inhibition of human LIM domain kinase 1 mRNA levels) of 206170 (eG*e[5mC]*eA*eA*e[5mC]*dT*d[5mC]*dG*d[5mC]*dT*dT*d[5mC]*d[5mC]*dT*dT*e[5mC]*e[5mC]*eT*e[5mC]*eT; antisense) [compound 206170] , can you help?
Result: 43

Task: Looking for the measured % INHIB (inhibition of human LIM domain kinase 1 mRNA levels) of 206200 (antisense e[5mC]*eT*eG*eG*e[5mC]*dT*dG*dT*d[5mC]*d[5mC]*dA*dT*dG*d[5mC]*dT*e[5mC]*eT*eT*eG*eA) [compound 206200] , can you help?
Result: 76

---

# Tested on: human LIM domain kinase 1 mRNA
# experimental_details: Antisense inhibition of human LIM domain kinase 1 mRNA levels, quantitative real-time PCR, A549 cells (screen)
# Assay type: cell-based
# condition_info: quantitative real-time PCR, averages from two experiments, screening concentration not given (50 nM to 300 nM used herein)
Strand notation (5' to 3'): a small letter for the sugar, then the base; units joined by * are phosphorothioate-linked, units joined directly phosphodiester-linked; [ ] holds rarer units or linkages, { } end groups; capitals alone tell only the bases. e = 2'-O-(2-methoxyethyl) (MOE); [5mC] = 5-methylcytosine; d = 2'-deoxy (DNA)
Collected % INHIB (inhibition of human LIM domain kinase 1 mRNA levels) values appear next to each entry.
Please reply with the bare figure in % and do not write the unit itself.

206172 (eT*e[5mC]*e[5mC]*eT*eT*d[5mC]*dT*dT*dG*d[5mC]*dA*dG*dA*dA*dG*eA*eG*e[5mC]*eT*eG; antisense) [compound 206172] :: 76
206212 (antisense eA*e[5mC]*eT*e[5mC]*e[5mC]*d[5mC]*d[5mC]*dA*dT*dT*dT*dG*dG*dT*dT*e[5mC]*e[5mC]*eT*eG*eG) [compound 206212] :: 91
206215 (antisense eG*e[5mC]*eA*eG*e[5mC]*dT*dG*d[5mC]*dT*dG*d[5mC]*dT*dG*d[5mC]*dA*eG*e[5mC]*e[5mC]*eG*eT) [compound 206215] :: 75
206208 (antisense e[5mC]*e[5mC]*eA*e[5mC]*e[5mC]*dT*d[5mC]*d[5mC]*d[5mC]*dG*d[5mC]*dG*dG*dA*dG*eG*eA*eA*eT*e[5mC]) [compound 206208] :: 79
206221 (antisense eT*e[5mC]*e[5mC]*e[5mC]*eA*d[5mC]*d[5mC]*dT*d[5mC]*d[5mC]*d[5mC]*dT*dA*dA*dG*eT*e[5mC]*eA*eT*eG) [compound 206221] :: 17
206219 (antisense eT*eG*e[5mC]*eA*e[5mC]*dT*dG*dA*dG*dA*dA*dA*dG*d[5mC]*dT*eT*e[5mC]*eA*e[5mC]*eA) [compound 206219] :: 89
206199 (antisense eT*eG*eT*e[5mC]*e[5mC]*dA*dT*dG*d[5mC]*dT*d[5mC]*dT*dT*dG*dA*eT*eG*eA*eT*eG) [compound 206199] :: 68
206230 (antisense e[5mC]*e[5mC]*eA*eG*eG*dT*dG*dA*dG*dT*dG*dT*dG*d[5mC]*dA*eA*eG*eG*e[5mC]*eA) [compound 206230] :: 74
206224 (antisense eG*e[5mC]*eT*eG*e[5mC]*dT*dG*d[5mC]*dA*dG*d[5mC]*d[5mC]*dG*dT*dA*eT*eG*eA*eA*eA) [compound 206224] :: 66
206187 (antisense eT*e[5mC]*eA*eG*e[5mC]*dT*dG*dG*dA*dG*d[5mC]*dA*dG*dG*d[5mC]*eG*eG*e[5mC]*eT*eG) [compound 206187] :: 60

Proceed to the following item.
Task: Looking for the measured % INHIB (inhibition of human LIM domain kinase 1 mRNA levels) of 206229 (antisense eG*eT*e[5mC]*eA*e[5mC]*dA*dA*d[5mC]*dA*d[5mC]*d[5mC]*dT*dG*d[5mC]*dA*eG*eG*eA*eG*eA) [compound 206229] , can you help?
Result: 66
